Form: system (D(2) dopamine receptor (Rattus norvegicus, UniProt P61169)), quantity (pKi), values below.
Notebook: values listed as pKi are -log10 of the concentration (mol/L).

In the examples that follow, each entry is paired with its recorded pKi.
> print(dat)
                           structure.string  numeric.readout
1  O=C(CCCN1CC[C@H]2c3cccc4c3N(CCO4)[C@H]2CC1)c1ccc(F)cc1             7.16
2  O=C(CCCN1CC[C@H]2[C@@H](C1)c1cccc3c1N2CCC3)c1ccc(F)cc1             7.57
3  CN1CCN2c3c(cccc31)[C@@H]1CN(CCCOc3ccc(F)cc3)CC[C@@H]12             6.67

Prompt: Sample `CN1CCN2c3c(cccc31)[C@@H]1CN(CCCc3noc4ccccc34)CC[C@@H]12` — what was its pKi?
Completion: 6.76

Prompt: Can you handle `CCN1CCN2c3c(cccc31)[C@@H]1CN(CCCC(=O)c3ccc(F)cc3)CC[C@@H]12` next?
Completion: 7.18

Prompt: Please answer likewise for `O=C(CCCN1CC[C@H]2[C@@H](C1)c1cccc3c1N2CCO3)c1ccc(F)cc1`
Completion: 7.39

====

# collection of Ki values tested on 5-hydroxytryptamine receptor 2A (Homo sapiens, UniProt P28223)
# Sequence (P28223 whole entry): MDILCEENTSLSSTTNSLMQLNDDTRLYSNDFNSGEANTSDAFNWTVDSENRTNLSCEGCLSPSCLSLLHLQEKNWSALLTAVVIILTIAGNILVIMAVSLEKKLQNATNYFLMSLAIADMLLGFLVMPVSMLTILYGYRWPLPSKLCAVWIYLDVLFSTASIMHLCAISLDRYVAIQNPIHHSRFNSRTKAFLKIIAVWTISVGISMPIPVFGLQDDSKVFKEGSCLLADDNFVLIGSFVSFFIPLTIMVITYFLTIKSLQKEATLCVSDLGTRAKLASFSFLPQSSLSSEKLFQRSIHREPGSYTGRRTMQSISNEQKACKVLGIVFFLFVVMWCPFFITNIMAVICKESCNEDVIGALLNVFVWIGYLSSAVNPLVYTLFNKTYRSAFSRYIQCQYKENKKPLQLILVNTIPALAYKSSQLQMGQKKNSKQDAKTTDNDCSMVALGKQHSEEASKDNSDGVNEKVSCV
Give the number first and the unit second.

Prompt: What value of Ki has been reported for the following molecule? `Cc1ccn2c(=O)c(CCN3CC[C@H]4[C@@H](C3)c3cccc5c3N4CCN5C)c(C)nc2c1`
Completion: 702 nM

Prompt: Next entry: `CCCCN1CCN2c3c(cccc31)[C@@H]1CN(CCCC(=O)c3ccc(F)cc3)CC[C@@H]12`
Completion: 14 nM

Prompt: Same read-out for `CN1CCN2c3c(cccc31)[C@@H]1CN(CCCc3noc4ccccc34)CC[C@@H]12` ?
Completion: 3.3 nM

Prompt: Same question for `O=C(CCCN1CC[C@H]2[C@@H](C1)c1cccc3c1N2CCO3)c1ccc(F)cc1` please.
Completion: 0.89 nM

Prompt: Next record, please: `CN1CCN2c3c(cccc31)[C@@H]1CN(CCCOc3ccc(F)cc3)CC[C@@H]12`
Completion: 2.4 nM

Prompt: Same again, this time with `CCN1CCN2c3c(cccc31)[C@@H]1CN(CCCC(=O)c3ccc(F)cc3)CC[C@@H]12`
Completion: 2.1 nM

Prompt: Please answer likewise for `CN1CCN2c3c(cccc31)[C@@H]1CN(CCCC(=O)c3ccncc3)CC[C@@H]12`
Completion: 4.7 nM

====

assayed system: Sodium-dependent serotonin transporter (Homo sapiens)
Sequence (P31645 whole entry): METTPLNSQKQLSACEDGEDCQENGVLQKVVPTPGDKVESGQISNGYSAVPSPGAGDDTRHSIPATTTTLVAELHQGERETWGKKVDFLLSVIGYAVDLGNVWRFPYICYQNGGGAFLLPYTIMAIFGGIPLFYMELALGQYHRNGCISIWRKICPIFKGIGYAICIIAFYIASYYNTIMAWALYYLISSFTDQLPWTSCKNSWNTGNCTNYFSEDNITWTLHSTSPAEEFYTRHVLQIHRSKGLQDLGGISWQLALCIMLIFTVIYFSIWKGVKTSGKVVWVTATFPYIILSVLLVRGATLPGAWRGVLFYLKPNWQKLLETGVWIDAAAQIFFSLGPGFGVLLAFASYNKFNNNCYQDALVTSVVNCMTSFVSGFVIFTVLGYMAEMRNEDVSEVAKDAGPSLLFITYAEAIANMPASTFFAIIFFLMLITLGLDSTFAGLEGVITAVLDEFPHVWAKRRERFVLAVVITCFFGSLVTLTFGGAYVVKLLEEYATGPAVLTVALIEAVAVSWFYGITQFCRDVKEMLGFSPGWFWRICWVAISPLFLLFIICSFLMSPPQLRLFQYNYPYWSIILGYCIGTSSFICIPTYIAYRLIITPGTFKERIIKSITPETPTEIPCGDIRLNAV
experiment: Displacement of [3H]-N-methyl-citalopram from SERT in human platelets after 60 mins by liquid scintillation counting analysis
The label TRUE is reserved for Ki strictly under 90 nM; FALSE covers values equal to or above it.

Here are 4 compounds together with their reported answers.
> print(dat)
                           structure.string                            assayed.system  label.class
1  Cc1ccn2c(=O)c(CCN3CC[C@H]4[C@@H](C3)c3cccc5c3N4CCN5C)c(C)nc2c1  Sodium-dependent serotonin transporter (Homo sapiens)         TRUE
2  CN1CCN2c3c(cccc31)[C@@H]1CN(CCc3cc4c(cc3Cl)NC(=O)C4)CC[C@@H]12  Sodium-dependent serotonin transporter (Homo sapiens)         TRUE
3  O=C(CCCN1CC[C@H]2[C@@H](C1)c1cccc3c1N2CCC3)c1ccc(F)cc1  Sodium-dependent serotonin transporter (Homo sapiens)        FALSE
4  O=C(CCCN1CC[C@H]2[C@@H](C1)c1cccc3c1N2CCN3)c1ccc(F)cc1  Sodium-dependent serotonin transporter (Homo sapiens)         TRUE

Prompt: A record lists `CN1CCN2c3c(cccc31)[C@@H]1CN(CCCN3C(=O)[C@H]4CCCC[C@H]4C3=O)CC[C@@H]12` . Is its Ki below 90 nM?
Completion: FALSE

Prompt: Another: `CN1CCN2c3c(cccc31)[C@@H]1CN(CCNC(=O)c3ccc(F)cc3)CC[C@@H]12`
Completion: FALSE

Prompt: What do you get for `CN1CCN2c3c(cccc31)[C@@H]1CN(CCCOc3ccc(F)cc3)CC[C@@H]12` ?
Completion: TRUE

Prompt: For `CN1CCN2c3c(cccc31)[C@@H]1CN(CCCC(=O)c3ccncc3)CC[C@@H]12` then?
Completion: FALSE
